Test system: Aerobactin synthetase IucA (Klebsiella pneumoniae hvKP1)
Experiment: Biochemical IucA enzyme inhibition primary screen of the Spectrum library (AID 1346200);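 also: 100% = wells without compound and 0% = wells lacking enzyme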
Conditions: malachite green pyrophosphate, A620, at 8 µM, stronger effect = lower value
REPORTED ENDPOINT: activity remaining (%)
Kindly answer with a numeric value in %, unit omitted.

What the record says about OC(c1cc(C(F)(F)F)nc2c(C(F)(F)F)cccc12)C1CCCCN1 (stereo not given) : activity remaining is 120

What the record says about "COc1cc(-c2coc3cc(OC)c(OC)c(OC)c3c2=O)cc(OC)c1OC" : activity remaining is 121

What the record says about "Cc1cc(=O)oc2cc(O)c(O)cc12" : activity remaining is 118

What the record says about "O=NN(CCCl)C(=O)NCCCl" : activity remaining is 123

What the record says about CC(=O)O[C@H]1CC[C@]2(C)C3=CC(=O)[C@@]4(C)C(C[C@@H]5OC6(OCC(C)CC6Br)[C@@H](C)[C@@H]54)C3CC[C@H]2C1 (stereo not given in full) : activity remaining is 117

* * *

Target: 6-phosphogluconate dehydrogenase, decarboxylating (Homo sapiens) (UniProt P52209)
Sequence (P52209 whole entry, looked up): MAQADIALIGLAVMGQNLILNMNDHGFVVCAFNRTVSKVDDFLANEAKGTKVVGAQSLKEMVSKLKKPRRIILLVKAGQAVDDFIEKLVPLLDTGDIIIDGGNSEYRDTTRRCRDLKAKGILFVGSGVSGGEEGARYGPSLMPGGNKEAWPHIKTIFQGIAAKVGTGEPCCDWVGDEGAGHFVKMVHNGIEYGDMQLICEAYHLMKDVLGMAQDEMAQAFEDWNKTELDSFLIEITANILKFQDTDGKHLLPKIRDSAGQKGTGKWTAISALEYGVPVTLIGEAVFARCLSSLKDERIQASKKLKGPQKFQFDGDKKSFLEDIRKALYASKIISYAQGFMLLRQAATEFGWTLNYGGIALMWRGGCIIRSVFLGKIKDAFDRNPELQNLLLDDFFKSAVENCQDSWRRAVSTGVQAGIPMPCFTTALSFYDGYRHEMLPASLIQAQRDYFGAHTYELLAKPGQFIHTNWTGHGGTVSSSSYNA
Experiment: 6PGD enzyme inhibitors, primary screen, biochemical, human, recombinant enzyme, NADPH absorbance (AID 1159550)
Conditions: recombinant 6PGD, NADPH absorbance 341 nm; at 10 µM; stronger effect = higher value
REPORTED ENDPOINT: inhibition (%)
Kindly answer with a numeric value in %, unit omitted.

What the record says about "CCNc1nc(Cl)nc(NCC)n1" : inhibition is 4.55

What the record says about "O=C1CCCN1CC#CCN1CCCC1" : inhibition is -3.4

What the record says about "O=[N+]([O-])c1ccc(O)c([N+](=O)[O-])c1" : inhibition is -2.82

What the record says about "CO[C@H]1C[C@H](O[C@H]2CC[C@]3(C=O)[C@H]4CC[C@]5(C)[C@@H](C6=CC(=O)OC6)CC[C@]5(O)[C@@H]4CC[C@]3(O)C2)O[C@H](C)[C@H]1O" : inhibition is -5.2

What the record says about "CC(C)(C#N)O[C@@H]1O[C@H](CO)[C@@H](O)[C@H](O)[C@H]1O" : inhibition is 5.98

What the record says about "O=[N+]([O-])c1cc([As](=O)(O)O)ccc1O" : inhibition is 11.3

What the record says about "COc1cccc(C=O)c1OC" : inhibition is 7.48

What the record says about "COc1ccc(C[C@H]2NC[C@H](O)[C@H]2OC(C)=O)cc1" : inhibition is -19.6

What the record says about "C[C@]12CCC(=O)C(O)=C1CC[C@@H]1[C@@H]2CC[C@]2(C)C(=O)CC[C@@H]12" : inhibition is -18.3

What the record says about CO[C@H]1[C@H](O)[C@H](O[C@H]2CC[C@]3(C)C4CC[C@]5(C)[C@@H](C6=CC(=O)OC6)CC[C@]5(O)C4CC[C@@H]3C2)O[C@@H](C)[C@@H]1O (some centres not stated) : inhibition is 11.3

What the record says about OC1CCCCC1N1CCC(c2ccccc2)CC1 (configuration not stated) : inhibition is 1.03

What the record says about [N-]=[N+]=CC(=O)OCC(N)C(=O)O (configuration not stated) : inhibition is 12.8

What the record says about "O=C(CC[N+](=O)[O-])OC[C@H]1O[C@@H](O)[C@H](OC(=O)CC[N+](=O)[O-])[C@@H](OC(=O)CC[N+](=O)[O-])[C@@H]1OC(=O)CC[N+](=O)[O-]" : inhibition is 0.279

What the record says about "CCCCOC(=O)c1ccccc1C(=O)OCCCC" : inhibition is 4.37

What the record says about COP(N)(=O)SC (configuration not stated) : inhibition is 4.36

What the record says about "CNC(=O)O/N=C(/C)SC" : inhibition is -23.1

What the record says about "N#Cc1c(Cl)cccc1Cl" : inhibition is -5.35

What the record says about "COc1cc2c(c(OC)c1OC)-c1ccc(O)c(=O)cc1[C@@H](NC(C)=O)CC2" : inhibition is 7.64

What the record says about "C[C@@H]1CC[C@H]2[C@@H](C)C(=O)O[C@@H]3O[C@@]4(C)CC[C@@H]1[C@]32OO4" : inhibition is 13.7

What the record says about "CC(C)N(C(=O)CCl)c1ccccc1" : inhibition is -9.5

What the record says about "CCCN(CCC)c1c([N+](=O)[O-])cc(C(F)(F)F)cc1[N+](=O)[O-]" : inhibition is -18.5

What the record says about "c1cncc([C@@H]2CCCCN2)c1" : inhibition is 4.92

What the record says about "C[C@]12CC[C@H](O)C[C@@H]1CC[C@@H]1[C@@H]2CC[C@]2(C)C(=O)CC[C@@H]12" : inhibition is 18.5

What the record says about "O=C1C=C2C=C[C@@H]3C[C@@]2(O1)[C@H]1CCCCN31" : inhibition is 6.02

What the record says about "COc1ccc([C@H]2Oc3c(I)c(OC)cc(OC)c3C[C@@H]2O)cc1OC" : inhibition is 14.5

What the record says about "COc1cc2c(cc1OC)[C@H]1C(=O)c3ccc4c(c3O[C@H]1CO2)C[C@@H](C(C)C)O4" : inhibition is -1.45

What the record says about "c1ccc2c(c1)[nH]c1cnccc12" : inhibition is 1.67

What the record says about "COP(=S)(OC)Oc1ccc([N+](=O)[O-])cc1" : inhibition is -0.396

What the record says about "CC(=O)O[C@H]1CC[C@@]2(C)[C@@H](CC[C@@H]3[C@@H]2CC[C@]2(C)C(=O)CC[C@@H]32)C1" : inhibition is 0.969

What the record says about "CCCCCCCCCc1ccc(O)cc1" : inhibition is 10.5

What the record says about COc1ccc(CC2c3cc(OC)c(OC)cc3CCN2C)cc1OC (configuration not stated) : inhibition is -3.74

What the record says about "CCOP(=S)(OCC)Oc1nc(Cl)c(Cl)cc1Cl" : inhibition is -10.3

What the record says about "CC(=O)[O-].CC(=O)[O-].[Cd+2]" : inhibition is 6.37

What the record says about CN1C2C[C@H](OC(=O)[C@H](CO)c3ccccc3)CC1[C@@H](O)C2 (some centres not stated) : inhibition is -3.17

What the record says about "O=c1cccc2n1CC1CNC[C@H]2C1" : inhibition is -36.3

What the record says about "C[C@H]1CC[C@]2(NC1)O[C@H]1C[C@H]3[C@@H]4CC[C@H]5C[C@@H](O)CC[C@]5(C)[C@H]4CC[C@]3(C)[C@H]1[C@@H]2C" : inhibition is -31.5

What the record says about CCN1CC2(COC)C(O)CC(OC)C34C5CC6(O)C(OC)C(O)C(OC(C)=O)(C5C6OC(=O)c5ccccc5)C(C(OC)C23)C14 (configuration not stated) : inhibition is 17.1
